Test system: EW-22 (Ewing's Sarcoma)
assay_comment: combination Emax (second highest fraction inhibited in the dose matrix, 72 h); higher = more inhibition; extreme values may be limits of the assay
Label y when combination Emax is at or above 0.9; anything below gets n.

Before answering, review these 3 worked examples.
COc1nnc2ccc(N3CCC(c4ccc(OCCN5CCN(C)C(=O)[C@H]5C)cc4)CC3)nn12 [AZD5153] + Cn1cnc2c(F)c(Nc3ccc(Br)cc3Cl)c(C(=O)NOCCO)cc21 [Selumetinib] (first compound max 1 µM, 7x7, partner max 10 µM) : n
CCc1c2c(nc3ccc(O)cc13)-c1cc3c(c(=O)n1C2)COC(=O)[C@]3(O)CC [SN-38] + O=C(c1cc(Cc2n[nH]c(=O)c3ccccc23)ccc1F)N1CCN(C(=O)C2CC2)CC1 [Olaparib] (first compound max 0.3 µM, 7x7, partner max 10 µM) : y
CN(CCO)CC[C@H](CSc1ccccc1)Nc1ccc(S(=O)(=O)NC(=O)c2ccc(N3CCC([C@@H](O)c4ccccc4-c4ccc(Cl)cc4)CC3)cc2)cc1S(=O)(=O)C(F)(F)F [AZD4320] + Cn1cnc2c(F)c(Nc3ccc(Br)cc3Cl)c(C(=O)NOCCO)cc21 [Selumetinib] (first compound max 1 µM, 7x7, partner max 3 µM) : y

Please turn your attention to the following entry.
stdin: Given CCN(CCO)CCCOc1ccc2c(Nc3cc(CC(=O)Nc4cccc(F)c4)[nH]n3)ncnc2c1 [AZD2811] + C=CCn1c(=O)c2cnc(Nc3ccc(N4CCN(C)CC4)cc3)nc2n1-c1cccc(C(C)(C)O)n1 [AZD1775] (first compound max 1 µM, partner max 1 µM) , state whether its combination Emax is at least 0.9.
stdout: n

###

Test system: SW948 (Colorectal Carcinoma);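 further: after 72 h of two-drug dosing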
assay_comment: Bliss excess, mean over the matrix (fraction); higher = more synergy
Reported Bliss excess by item:
Field format: numeric only.

Examples with their reported Bliss excess follow.
COc1cccc(OCCCN)c1-c1cc(Nc2cnc(C#N)cn2)n[nH]1 [Prexasertib] + CN(C)CCCOc1ccc(-c2ccc3ncc4c(c3c2)n(C2CCOCC2)c(=O)n4C)cn1 [AZD0156] (first compound max 1 µM, 7x7, partner max 1 µM) : 0.0294
C[C@@H]1COCCN1c1cc(C2([S@](C)(=N)=O)CC2)nc(-c2ccnc3[nH]ccc23)n1 [AZD6738] + C1CC(C1)(C(=O)[O-])C(=O)[O-].N.N.[Pt+2] [Carboplatin] (first compound max 10 µM, 7x7, partner max 10 µM) : -0.0659
Cc1nc(-c2cn3c(n2)-c2ccc(-c4cnn(C(C)(C)C(N)=O)c4)cc2OCC3)n(C(C)C)n1 [Taselisib] + O=C(Nc1ccc2[nH]nc(-c3ccncc3)c2c1)[C@@H]1CCN(CC(=O)N2CCN(c3ccc(-c4ncccn4)cc3)CC2)C1 [SCH772984] (first compound max 10 µM, 7x7, partner max 5 µM) : 0.032

stdin: Which Bliss excess reading was recorded for the compound COc1nnc2ccc(N3CCC(c4ccc(OCCN5CCN(C)C(=O)[C@H]5C)cc4)CC3)nn12 [AZD5153] + CCN(CCO)CCCOc1ccc2c(Nc3cc(CC(=O)Nc4cccc(F)c4)[nH]n3)ncnc2c1 [AZD2811] (first compound max 1 µM, 7x7, partner max 1 µM) ?
stdout: -0.102

stdin: Reported Bliss excess for Cc1cc2ncnn2cc1Nc1ncc2c(n1)n(C1CCOCC1)c(=O)n2C [AZD7648] + COc1cc([C@@H]2c3cc4c(cc3[C@@H](O[C@@H]3O[C@@H]5CO[C@@H](C)O[C@H]5[C@H](O)[C@H]3O)[C@H]3COC(=O)[C@H]23)OCO4)cc(OC)c1O [Etoposide] (first compound max 10 µM, 7x7, partner max 10 µM) : what is it?
stdout: -0.0456

stdin: GET /values?readout=Bliss excess&item= CC1(C)CCC(CN2CCN(c3ccc(C(=O)NS(=O)(=O)c4ccc(NCC5CCOCC5)c([N+](=O)[O-])c4)c(Oc4cnc5[nH]ccc5c4)c3)CC2)=C(c2ccc(Cl)cc2)C1 [Venetoclax] + Cc1cc2ncnn2cc1Nc1ncc2c(n1)n(C1CCOCC1)c(=O)n2C [AZD7648] (first compound max 1 µM, 7x7, partner max 10 µM)
stdout: -0.0448
